Values from the Human Domainome abundance scans (Beltran et al. 2025)

We begin with a simple list: items and their reported abundance fitness.
B1: Far upstream element-binding protein 3, residues 75 to 150; numbered along this chain, Q96I24 (parent)
chain: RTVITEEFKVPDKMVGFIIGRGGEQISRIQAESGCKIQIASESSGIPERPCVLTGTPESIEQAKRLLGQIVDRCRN

Variants of: B1
TEST_DETAILS: abundance fitness (aPCA) (normalised: wild type 0, dead -1); higher = more abundant; growth selection in yeast, the domain comes from the species named
CONDITION_DESCRIPTION: Homo sapiens
Could you keep your reply to the number by itself?

Known results for variants:
{"MUTATION_STRING": "I46Q", "abundance fitness": -0.007}
{"MUTATION_STRING": "G45C", "abundance fitness": -0.094}
{"MUTATION_STRING": "I19G", "abundance fitness": -0.102}

# get_value(readout='abundance fitness', item= D72G )
-0.033

# get_value(readout='abundance fitness', item= I4T )
-0.045

# get_value(readout='abundance fitness', item= S27Q )
-0.066

# get_value(readout='abundance fitness', item= G55S )
-0.827

# get_value(readout='abundance fitness', item= T54N )
-0.1

# get_value(readout='abundance fitness', item= V3T )
-0.098

# get_value(readout='abundance fitness', item= L67M )
-0.099

# get_value(readout='abundance fitness', item= K36E )
-0.02

# get_value(readout='abundance fitness', item= I46W )
-0.093

# get_value(readout='abundance fitness', item= V10M )
-0.122

# get_value(readout='abundance fitness', item= K36A )
-0.065

# get_value(readout='abundance fitness', item= P11T )
-0.136
